B1: Poly(rC)-binding protein 1, residues 278 to 350; numbered along this chain, Q15365 (parent)
chain: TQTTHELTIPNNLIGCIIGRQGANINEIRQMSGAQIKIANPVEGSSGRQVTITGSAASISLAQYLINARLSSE

# Variants of: B1
# assay.protocol: abundance fitness (aPCA) (normalised: wild type 0, dead -1); higher = more abundant; growth selection in yeast, the domain comes from the species named
# test.context: Homo sapiens
Returns one of 1.0 or 0.0; 1.0 when abundance fitness is >= -0.03.

The following variants have reported results that may help.
1. R20A	1.0
2. S46G	0.0

Could you verify whether the entry `E6A` shows abundance fitness of no less than -0.03? 1.0

Could you verify whether the entry `Y64S` shows abundance fitness of no less than -0.03? 1.0

Could you verify whether the entry `Q63K` shows abundance fitness of no less than -0.03? 1.0

Could you verify whether the entry `A39R` shows abundance fitness of no less than -0.03? 0.0

Could you verify whether the entry `G19D` shows abundance fitness of no less than -0.03? 0.0
